Test system: MDA-N
Procedure details: NCI tumour cell line growth inhibition, 48 h
Activity calls are given as the source filed them. Cut-off read from the data, not from the text of the source: active = GI50 up to about 1.1 µM and inactive = higher.
Respond only with the outcome that fits, drawn from class 1 = active, class 0 = inactive

{"Compound": "O=C(O)c1cc2ccccc2c(Cc2c(O)c(C(=O)O)cc3ccccc23)c1O [PAMOIC ACID]", "Assigned category": "class 0"}
{"Compound": "CC(C)CCCC(C)[C@H]1CC[C@H]2N/C(=N/Cc3ccccc3)CCC[C@]12C (stereo not given in full)", "Assigned category": "class 0"}

Qu. Please share the test call associated with CC1=[N+](C)CCN1C .
Ans. class 0

Qu. Please share the test call associated with COc1ccc(C(OCC2OC(n3ccc(NC(=O)c4ccccc4)nc3=O)CC2OP2(=S)SCCS2)(c2ccccc2)c2ccc(OC)cc2)cc1 (stereo not given) .
Ans. class 0

Qu. Please share the test call associated with O=Cc1cc2c(s1)C(=O)c1sccc1C2=O .
Ans. class 1

====

Test system: TK-10
Procedure details: NCI tumour cell line growth inhibition, 48 h
Active and inactive are the calls of the source. Rule as the data show it: active = GI50 up to about 1.1 µM and inactive = higher.
Endpoint label: GI50

{"Compound": "CC(C)(C)c1ccc2c(c1)C(=O)c1ccccc1C2=O", "System under test": "TK-10", "Endpoint value": "86.3 µM (inactive)"}
{"Compound": "Cc1ccnc2c1c(=O)c1ccccc1n2C", "System under test": "TK-10", "Endpoint value": "26.3 µM (inactive)"}
{"Compound": "CC(=O)O[C@H]1CCC2[C@@H]3CCC4C(=O)c5oncc5C[C@]4(C)C3CC[C@@]21C (some centres not stated)", "System under test": "TK-10", "Endpoint value": "> 100 µM (inactive)"}
{"Compound": "O=C1C2CCCC2N1Cc1ccccc1 (configuration not stated)", "System under test": "TK-10", "Endpoint value": "> 100 µM (inactive)"}
{"Compound": "COc1ccc(OC)c(NC(=O)C(=O)CC(=O)c2sc(-n3nc(-c4ccccc4)cc3-c3ccccc3)nc2C)c1", "System under test": "TK-10", "Endpoint value": "> 100 µM (inactive)"}
{"Compound": "C/C=C1/CN2CCC34C(=C(C(=O)OC)C1CC23)Nc1ccc(O)cc14 (configuration not stated)", "System under test": "TK-10", "Endpoint value": "> 100 µM (inactive)"}

Form: item CC(=O)O[C@@H](c1nccn1Cc1ccccc1)[C@H]1OC(C)(C)O[C@@H]1[C@H]1COC(C)(C)O1 ; test system TK-10; GI50: > 100 µM (inactive)

Form: item c1ccc(CNCCN2CCNCC2)nc1 ; test system TK-10; GI50: > 100 µM (inactive)

Form: item COc1cc(C2SCCCCCCCCCCSC(c3ccc(O)c(OC)c3)SCCCCCCCCCCS2)ccc1O (configuration not stated) ; test system TK-10; GI50: > 100 µM (inactive)

Form: item Cc1cc(C)nc(NS(=O)(=O)c2ccc(NC(=O)c3cccc4c(Nc5ccc(S(=O)(=O)N=C(N)N)cc5)c5ccccc5nc34)cc2)n1 ; test system TK-10; GI50: 34.8 µM (inactive)

Form: item O=c1c2ccccc2sc2c(CO)ccc(NCCN3CCCCC3)c12 ; test system TK-10; GI50: 3.48 µM (inactive)

Form: item CC(C)(C)C(=O)OCC(COC(=O)C(C)(C)C)[N+](=O)[O-] ; test system TK-10; GI50: > 100 µM (inactive)

====

Measured GI50 accompanies every entry in the list below.
System: LOX IMVI
Procedure details: NCI tumour cell line growth inhibition, 48 h
Activity calls are given as the source filed them. Rule as the data show it: active = GI50 up to about 1.1 µM and inactive = higher.

Example entries begin here.
{"Compound": "C/C(CC(=O)NCCc1ccccc1)=N\\NS(=O)(=O)c1ccc(C)cc1", "Endpoint value": "> 100 µM (inactive)"}
{"Compound": "CCOC1=C(c2ccccc2)N2CCCCC2O1 (stereo unspecified)", "Endpoint value": "3.77 µM (inactive)"}

Form: item CC(C)(C)NC(=O)NC12CC3CC(CC(F)(C3)C1)C2 ; test system LOX IMVI; GI50: > 100 µM (inactive)

Form: item O=C(Cn1c2ccc(Br)cc2c2nc3ccccc3nc21)NNC(=S)NC1CCCCC1 ; test system LOX IMVI; GI50: 12.4 µM (inactive)

Form: item CC(C)c1ccc(C2NC(S)=NC3=C2c2ccccc2C3=O)cc1 (stereo unspecified) ; test system LOX IMVI; GI50: 20.6 µM (inactive)

Form: item Nc1cccc(OCC2CCCN3CCCCC23)c1 (stereo unspecified) ; test system LOX IMVI; GI50: 15.8 µM (inactive)

====

Tested on: SK-MEL-5
Procedure details: NCI tumour cell line growth inhibition, 48 h
Calls of active or inactive are those of the source. Rule as the data show it: active = GI50 up to about 1.1 µM and inactive = higher.
Respond only with the outcome that fits, drawn from active, inactive

{"Compound": "C[C@@]12C[C@@H](c3ccccc3O1)N1Cc3ccccc3CSC1=N2", "Assigned category": "inactive"}
{"Compound": "C[Si](C)(C)/C=C\\CCO", "Assigned category": "inactive"}

Qu. Please share the test call associated with COc1cccc2c1CCc1cc3c(N)nc(N)nc3nc1-2 .
Ans. inactive

Qu. Please share the test call associated with CC1=[N+](C)CCN1C .
Ans. inactive

Qu. Please share the test call associated with CC1(C)OB(O)OC1(C)C .
Ans. inactive

====

Test system: LOX IMVI
Procedure details: NCI tumour cell line growth inhibition, 48 h
Calls of active or inactive are those of the source. No stated cut-off is given here; in the data, active = GI50 up to about 1.1 µM and inactive = higher.
Respond only with the outcome that fits, drawn from true (1) for active, false (0) for inactive

Field: example entries. Status: answers known.
{"Molecule": "COc1cc(C2c3cc4c(cc3OC(Nc3ccc(C(=O)O)cc3)C2C)OCO4)cc(OC)c1OC (configuration not stated)", "Assigned category": "true (1)"}
{"Molecule": "CC1(C2COC(=O)C2)SCCCS1 (configuration not stated)", "Assigned category": "false (0)"}
{"Molecule": "C[C@@]12C[C@@H](c3ccccc3O1)N1Cc3ccccc3CSC1=N2", "Assigned category": "false (0)"}
{"Molecule": "CCN(CC)c1c(C)c(C(=O)OC)nn1-c1ccccc1", "Assigned category": "false (0)"}
{"Molecule": "C[C@@]12c3c4ccc(C=O)c3Oc3ccc(C=O)c(c31)Oc1c(C=O)ccc(c12)O4", "Assigned category": "false (0)"}

Qu. Please share the test call associated with Cc1ccc(Sc2cc([N+](=O)[O-])cc(Sc3ccc(C)cc3)c2Sc2ccc(C)cc2)cc1 .
Ans. false (0)

Qu. Please share the test call associated with Cn1c(=O)ccc2c(=O)c3ccccc3oc21 .
Ans. false (0)

Qu. Please share the test call associated with CCCC(=O)OCC(O)CO (configuration not stated) .
Ans. false (0)

Qu. Please share the test call associated with Cc1coc2c1CC1OC1(C)CCC1OC1(C)C2 (configuration not stated) .
Ans. false (0)

Qu. Please share the test call associated with NC1C2C=CC(C2)C1C(=O)O (configuration not stated) .
Ans. false (0)

Qu. Please share the test call associated with N#Cc1c(-c2ccc(Cl)cc2)c2c(n(C3OC(CO)C(O)C(O)C3O)c1=S)CCCC2 (configuration not stated) .
Ans. false (0)

Qu. Please share the test call associated with CC(=O)C1C(=O)C(=O)N(c2ccc(Br)cc2)C1=O (configuration not stated) .
Ans. false (0)

====

Test system: K562
Procedure details: NCI tumour cell line growth inhibition, 48 h
Activity calls are given as the source filed them. No stated cut-off is given here; in the data, active = GI50 up to about 1.1 µM and inactive = higher.
Respond only with the outcome that fits, drawn from 1 for active, -1 for inactive

Field: example entries. Status: answers known.
{"Compound": "Nc1c(C(=O)Nc2ccc(C3=NCCN3)cc2)cccc1C(=O)Nc1ccc(C2=NCCN2)cc1", "Assigned category": -1}
{"Compound": "CC(=O)Nn1cnc(C(=N)C#N)c1N", "Assigned category": -1}
{"Compound": "COc1c(C(=O)O)cccc1-c1cccc(C(=O)NCCN(CCNC(=O)c2cccc(-c3cccc(C(=O)O)c3OC)c2OC)CCNC(=O)c2cccc(-c3cccc(C(=O)O)c3OC)c2OC)c1OC", "Assigned category": -1}

Qu. Please share the test call associated with O=C(O)c1ccccc1/C=C1/Cc2ccc3c(c2C1=O)CCC3 .
Ans. -1

Qu. Please share the test call associated with C=C(Cl)C(C)(Cl)CCC(Br)C(C)(C)Cl (stereo unspecified) .
Ans. -1

Qu. Please share the test call associated with C=C1CC(OC)(C(O)C(=O)N[C@H]2OCO[C@H]3C2O[C@H](C[C@@H](CO)OC)C(C)(C)C3OC)O[C@H](C)[C@@H]1C (stereo partly specified) .
Ans. 1

Qu. Please share the test call associated with Cc1ccc(Sc2cc([N+](=O)[O-])cc(Sc3ccc(C)cc3)c2Sc2ccc(C)cc2)cc1 .
Ans. -1

Qu. Please share the test call associated with CCCCN(CCCC)CC(O)c1cc(-c2ccc(Cl)c(Cl)c2)nc2c(Cl)cc(Cl)cc12 (stereo unspecified) .
Ans. -1

====

Test system: HCC 2998
Procedure details: NCI tumour cell line growth inhibition, 48 h
Active and inactive are the calls of the source. Cut-off read from the data, not from the text of the source: active = GI50 up to about 1.1 µM and inactive = higher.
Respond only with the outcome that fits, drawn from active, inactive

{"Compound": "O=S1(=O)c2ccccc2N(c2ccccc2)c2nnnn21", "Assigned category": "inactive"}
{"Compound": "CC(=O)Nc1ccccc1-c1nc2ccccc2nc1-c1ccccc1", "Assigned category": "inactive"}
{"Compound": "COC(=O)C1C/C(=C/N(C)C)C(=S)N1 (stereo not given)", "Assigned category": "inactive"}
{"Compound": "CC(=O)Nc1ccc2c(c1)/C(=N/c1ccc(C(=O)O)cc1)c1ccccc1-2", "Assigned category": "inactive"}
{"Compound": "Cc1cc2c(c(/C=N/c3ccc([N+](=O)[O-])cc3)c1)OC1(C=C2)Oc2ccccc2C(=O)N1C (stereo not given)", "Assigned category": "inactive"}

Qu. Please share the test call associated with Nc1nc(N)c2c(CCc3ccc(C(=O)N[C@@H](CCC(=O)O)C(=O)O)cc3)ccnc2n1 .
Ans. active

Qu. Please share the test call associated with CC(C)(C)NC(=O)NC12CC3CC(CC(F)(C3)C1)C2 .
Ans. inactive

Qu. Please share the test call associated with COc1ccc(/C(=N/OCCCC(=O)O)c2cccs2)cc1 .
Ans. inactive

Qu. Please share the test call associated with Nc1ncnc2c1ncn2CCOC(c1ccccc1)P(=O)(O)O (stereo not given) .
Ans. inactive

Qu. Please share the test call associated with C[C@]12CC[C@@H]3c4ccccc4CC[C@H]3[C@@H]1CC[C@@H]2O .
Ans. inactive
